Data provenance is PubChem BioAssay AID1159580.

# assayName: chemical genetic growth profiling, strain panel (AID 1159580);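 note: tested at 20 µM; growth read once vehicle control cultures reached saturation at 30 °C; 1 = growth at the plate median or of vehicle wells; lower values mean less growth of the strain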
# studyConditions: S. cerevisiae deletion strains, growth OD, locus YMR231W, strain pep5, active compounds read low
About 2,000 (36%) of roughly 5,500 compounds were called active. About 18% were inconclusive and are not listed. Some of the results follow.
metric: normalized growth
Answer as a number with no unit attached.

The examples below pair each entry with its known result.
| molecule | normalized growth |
| --- | --- |
| CC(C)(C)CC(C)(C)c1ccc(O)c(Cc2ccc(Cl)cc2Cl)c1 | 1.03 |
| C=C1CCC(C2CC(=O)OC2=O)C(=O)CCC2C1CC2(C)C (centres undefined) | 0.991 |
| COc1cc2occ(-c3ccccc3)c(=O)c2c(OC)c1C | 0.998 |
| CC(C)C(C)/C=C/C(C)C1CCC2C3=CC=C4CC(O)CCC4(C)C3CCC21C (centres undefined) | 0.998 |
| CCOC(=O)[C@H](CCc1ccccc1)N[C@@H](C)C(=O)N1[C@H](C(=O)O)C[C@@H]2CCC[C@@H]21 | 0.978 |
| CC(C)C(C)/C=C/C(C)[C@H]1CCC2C3=CCC4CC(=O)CC[C@]4(C)C3CC[C@@]21C (some centres undefined) | 0.999 |
| Cn1c(=O)c2[nH]cnc2n(C)c1=O | 1.02 |
| CCC(C)C(=O)O[C@H]1C[C@H](O)C=C2C=C[C@H](C)[C@H](CC[C@@H](O)C[C@@H](O)CC(=O)O)C21 (some centres undefined) | 1 |
| CC(C)NNC(=O)c1ccncc1 | 1 |
| O=C1[C@H](CCC(O)c2ccc(F)cc2)[C@@H](c2ccc(O)cc2)N1c1ccc(F)cc1 (some centres undefined) | 0.994 |

GET /values?readout=normalized growth&item= COC(=O)C(O)c1ccccc1 (centres undefined) 0.977

Could you tell me which normalized growth is on file for "Clc1cccc(Cl)c1NC1=NCCN1" ? 0.999

Please look up its normalized growth: NS(=O)(=O)c1cc2c(cc1Cl)NC(C(Cl)Cl)NS2(=O)=O (centres undefined) 0.971

Look up normalized growth: "NC(=O)c1cccc(N)c1" 0.984

Would you kindly share the measured normalized growth for "O=C(O)CN1C(=O)c2cccc3cccc(c23)C1=O" ? 0.992

normalized growth lookup needed for CCCCN1CCCCC1C(=O)Nc1c(C)cccc1C (centres undefined) , thanks. 0.996
